Target: 53BP1 Tudor D1521A (H. sapiens, UniProt Q12888 1484-1603, D1521A)
Sequence (Q12888 other isoform, or with tags, fused parts or gaps D1521A | D1521A): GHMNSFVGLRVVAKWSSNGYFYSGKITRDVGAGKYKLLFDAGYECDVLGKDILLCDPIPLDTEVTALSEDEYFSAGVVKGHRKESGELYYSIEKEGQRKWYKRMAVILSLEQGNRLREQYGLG
Assay: ITC
pKd: −log10 of the molar value. Where no end group is shown, it is not given here. Me2 = dimethyl-lysine
recordedEndpoint: pKd

Q: # return recorded pKd for entry KRHRK(Me2)VLRDN [H4K20me2]
Result: < 2.82
